- Study Target: Muscarinic acetylcholine receptor M2 (Homo sapiens, UniProt P08172); further: assay procedure not described here
- Sequence (P08172 whole entry): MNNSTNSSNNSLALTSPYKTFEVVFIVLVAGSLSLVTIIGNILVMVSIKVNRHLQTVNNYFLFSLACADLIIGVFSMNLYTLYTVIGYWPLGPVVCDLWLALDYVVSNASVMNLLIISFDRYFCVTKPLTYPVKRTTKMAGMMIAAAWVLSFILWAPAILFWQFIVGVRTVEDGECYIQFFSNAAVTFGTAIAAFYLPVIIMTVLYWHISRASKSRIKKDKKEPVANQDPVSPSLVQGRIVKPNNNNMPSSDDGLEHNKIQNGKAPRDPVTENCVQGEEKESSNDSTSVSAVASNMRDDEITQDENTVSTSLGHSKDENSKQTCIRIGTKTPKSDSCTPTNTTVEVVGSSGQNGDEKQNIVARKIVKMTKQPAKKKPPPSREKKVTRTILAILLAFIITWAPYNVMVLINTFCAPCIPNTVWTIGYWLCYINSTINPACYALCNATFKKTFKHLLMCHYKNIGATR
- Type: functional, cell-based
Measured Quantity: AC50

                            smiles_notation                              study_target  endpoint_value
0  CCN1CCN(C(=O)N[C@@H](C(=O)N[C@@H]2C(=O)N3C(C(=O)O)=C(CSc4nnnn4C)CS[C@H]23)c2ccc(O)cc2)C(=O)C1=O  Muscarinic acetylcholine receptor M2 (Homo sapiens, UniProt P08172)         > 30 µM
1  CO/N=C(\C(=O)N[C@@H]1C(=O)N2C(C(=O)O)=C(CSc3nnnn3C)CS[C@H]12)c1csc(N)n1  Muscarinic acetylcholine receptor M2 (Homo sapiens, UniProt P08172)         > 30 µM
2  CC(=O)O[C@H]1C[C@@H]2CC[C@@H]3[C@H](CC[C@@]4(C)[C@H]3C[C@H]([N+]3(C)CCCCC3)[C@@H]4OC(C)=O)[C@@]2(C)C[C@@H]1N1CCCCC1  Muscarinic acetylcholine receptor M2 (Homo sapiens, UniProt P08172)         > 30 µM

---

Test system Vasopressin V1a receptor (Homo sapiens, UniProt P37288), AC50 listed for each of the compounds. Further: assay procedure not described here.
Measured Quantity: AC50

Compound	Endpoint Value
Cc1nc([N+](=O)[O-])cn1-c1ccc([N+](=O)[O-])cc1 [NITREFAZOLE]	> 30 µM
COc1ccc(CC(C)(C)NC[C@H](O)c2cc(O)cc3c2OCC(=O)N3)cc1 [OLODATEROL]	> 30 µM
CC[C@H]1OC(=O)[C@H](C)[C@@H](O[C@H]2C[C@@](C)(OC)[C@@H](O)[C@H](C)O2)[C@H](C)[C@@H](O[C@@H]2O[C@H](C)C[C@H](N(C)C)[C@H]2O)[C@](C)(O)C[C@@H](C)CN(C)[C@H](C)[C@@H](O)[C@]1(C)O [AZITHROMYCIN]	> 10 µM
CNC(=O)c1ccccc1Sc1ccc2c(/C=C/c3ccccn3)n[nH]c2c1 [AXITINIB]	> 30 µM
OC(CNCC(O)C1CCc2cc(F)ccc2O1)C1CCc2cc(F)ccc2O1 (stereo not given) [NEBIVOLOL]	> 30 µM
COc1ccccc1N1CCN(CCCNc2cc(=O)n(C)c(=O)n2C)CC1	> 30 µM
C[C@H](N)[C@H](O)c1cccc(O)c1 [METARAMINOL]	> 10 µM
Cc1cc(O)c(C(=O)N[C@@H](C(=O)N[C@@H]2C(=O)N3C(C(=O)O)=C(CSc4nnnn4C)CS[C@H]23)c2ccc(O)cc2)cn1 [CEFPIRAMIDE]	> 30 µM
O=C(O)C1=C(CSc2nnnn2CS(=O)(=O)O)CS[C@@H]2[C@H](NC(=O)[C@H](O)c3ccccc3)C(=O)N12 [CEFONICID]	> 30 µM
COC(=O)[C@H]1[C@H]2C[C@@H]3c4[nH]c5cc(OC)ccc5c4CCN3C[C@H]2C[C@@H](OC(=O)/C=C/c2cc(OC)c(OC)c(OC)c2)[C@@H]1OC [RESCINNAMINE]	> 10 µM
O=[N+]([O-])O[C@@H]1CO[C@H]2[C@@H]1OC[C@@H]2O [ISOSORBIDE MONONITRATE]	> 10 µM
O=C1Nc2ccc(Cl)cc2[C@@](C#CC2CC2)(C(F)(F)F)O1 [EFAVIRENZ]	> 30 µM
CCCCN1C[C@H](O)[C@@H](O)[C@H](O)[C@H]1CO	> 30 µM
C[C@@H](O)[C@H]1C(=O)N2C(C(=O)O)=C(S[C@@H]3CN[C@H](C(=O)N(C)C)C3)[C@H](C)[C@H]12 [MEROPENEM]	> 300 µM
CN1CCN(CC/C=C2/c3ccccc3Sc3ccc(S(=O)(=O)N(C)C)cc32)CC1 [THIOTHIXENE]	> 10 µM
